Molecular target: T1, SYNJ2BP, P57105
T1 sequence (P57105 8-110, limits assumed, looked up): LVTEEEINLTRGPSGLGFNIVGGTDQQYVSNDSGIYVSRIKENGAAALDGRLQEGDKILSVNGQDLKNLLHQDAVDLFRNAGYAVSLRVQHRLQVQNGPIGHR
Test: holdup assay
Set-up: key: below the threshold = too weak to quantify, mostly under pKd 3.1 to 4
Details: plain residues with an end cap or a label only (N-terminal biotin on a linker: ado-ado)
ATTRIBUTE_MEASURED: pKd

[
  {
    "BINDER": "TNSKQGETTV [FZD1, Q9UP38]",
    "TEST_VALUE": 4.7
  },
  {
    "BINDER": "GNDPDRGTSI [GRID2, O43424]",
    "TEST_VALUE": 4.72
  },
  {
    "BINDER": "NKSEPFLTWL [WWTR1, Q9GZV5]",
    "TEST_VALUE": 4.52
  },
  {
    "BINDER": "HYPASPDSWV [CTNND2, Q9UQB3]",
    "TEST_VALUE": 5.07
  },
  {
    "BINDER": "IQISELETNV [SLC1A7, O00341]",
    "TEST_VALUE": 4.56
  },
  {
    "BINDER": "GTMFLRETSL [GUCY1A2, P33402]",
    "TEST_VALUE": 5.41
  },
  {
    "BINDER": "PGKKPEDSRV [SLCO2B1, O94956]",
    "TEST_VALUE": 4.15
  },
  {
    "BINDER": "VYEVPVETKF [SLC26A3, P40879]",
    "TEST_VALUE": 3.57
  }
]
